Target: Angiotensin II receptor
Test: In vitro angiotensin II mesenteric artery receptor binding assay (test 1)
Settings: rat mesenteric artery membrane fraction, 0.2 nM 125I-Ang II, 22°C, 90 minutes
Description: I) In vitro angiotensin II mesenteric artery receptor binding assay According to the method (1) by Gunther et al., a membrane fraction was prepared from mesenteric artery of male rat, […] protein equivalent of it and 0.2 nM ^125I-Ang II as well as various concentrations of test compounds were incubated at 22°C for 90 minutes in an incubation buffer (50 mM Tris-HCl, 120 mM NaCl, 5 mM MgCl2. 0.25% bovine serum albumin, pH 7.2) (reaction volume; 200 µl). […]
experimentalReadout: log10 of IC50 (log10 of the value in nM)
Recall that a logarithmic scale is used here: each number is log10 of IC50 in nM.

INSERT INTO results (compound, testsystem, testvalue) VALUES
  ('CCCCc1nc2c(=O)n3n(c(=O)c2n1Cc1ccc(-c2ccccc2-c2nn[nH]n2)cc1)C1CCC3(C(=O)OC)CC1', 'Angiotensin II receptor', 0.71),
  ('CCCc1nc2c(=O)n3n(c(=O)c2n1Cc1ccc(-c2ccccc2-c2nnn[nH]2)cc1)C1(COCC(C)O)CCC3CC1 (centres unmarked)', 'Angiotensin II receptor', 0.94),
  ('CCCc1nc2c(n1Cc1ccc(-c3ccccc3-c3nn[nH]n3)cc1)C(=O)N1CC(C)C(C)CN1C2 (centres unmarked)', 'Angiotensin II receptor', 0.66),
  ('CCCc1nc2c(=O)n3n(c(=O)c2n1Cc1ccc(-c2ccccc2-c2nn[nH]n2)cc1)C1C=CC3CC1 (centres unmarked)', 'Angiotensin II receptor', 0.18),
  ('CCCc1nc2c(=O)n3n(c(=O)c2n1Cc1ccc(-c2ccccc2-c2nn[nH]n2)cc1)CCCC3', 'Angiotensin II receptor', 0.52),
  ('CCCc1nc2c(=O)n3n(c(=O)c2n1Cc1ccc(-c2ccccc2-c2nnn[nH]2)cc1)C1CCC3(C(=O)N(CC)CC)CC1', 'Angiotensin II receptor', 0.99);

Indicate the recorded log10 of IC50 value for this compound: "C/C=C/c1nc2c(n1Cc1ccc(-c3ccccc3-c3nnn[nH]3)cc1)C(=O)N1N(C2)C2(CC)CCC1(CC)CC2" 0.96

Indicate the recorded log10 of IC50 value for this compound: CCCc1nc2c(=O)n3n(c(=O)c2n1Cc1ccc(-c2ccccc2-c2nnn[nH]2)cc1)C(C)CCC3C(=O)NC(C)(C)C (centres unmarked) 0.59

Dear colleague, please send me the reported log10 of IC50 for "CCCCc1nc2c(n1Cc1ccc(-c3ccccc3-c3nn[nH]n3)cc1)C(=O)N1C3CCC(C)(CC3)N1C2" when you can. 0.11
